B1: MIA2 (parent)
chain: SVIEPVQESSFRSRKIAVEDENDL

Variants of: B1
ASSAY_SUMMARY: protein stability index of a GFP-peptide fusion (GPS, HEK-293T) (PSI 1-6); higher = more stable;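 note: lentivirally expressed fusions sorted by FACS into six bins by GFP to DsRed ratio, PSI derived from sequencing read proportions per bin multiplied by bin number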
CONDITION_PARAMETERS: c terminus: a fixed tail appended
Kindly supply the reported protein stability index values for the records listed here.
No unit in the answer, please; the number alone is enough.

Exercise: Find the recorded protein stability index belonging to K15L and report it.
Solution: 5.14

Exercise: # get_value(readout='protein stability index', item= S13A )
Solution: 5.65

Exercise: So what does the record say about protein stability index for I3W ?
Solution: 5.13

Exercise: Please give the measured protein stability index for this variant: I3T
Solution: 5.6

Exercise: Need protein stability index of N22W , thanks.
Solution: 4.35

Exercise: Look up protein stability index: I16D
Solution: 5.68

Exercise: Bench note: what protein stability index did E19I show?
Solution: 4.25

Exercise: Can you look up the measured protein stability index of F11L for me?
Solution: 5.46

Exercise: protein stability index lookup needed for P5I , thanks.
Solution: 3.56

Exercise: Query (variant): S13F ; field requested: protein stability index
Solution: 5.03

Exercise: I would be grateful if you could share the reported protein stability index for S9I .
Solution: 5.31

Exercise: Consider the variant L24P and give its measured protein stability index.
Solution: 5.42

Exercise: What value of measured protein stability index is listed for K15H ?
Solution: 5.36

Exercise: Name the recorded protein stability index for V18W .
Solution: 5.16

Exercise: Which protein stability index is reported for this variant? F11W
Solution: 5.44

Exercise: Could you share which protein stability index value was measured for R12N ?
Solution: 5.61

Exercise: I am curious: what protein stability index value has been reported for N22P ?
Solution: 4.96

Exercise: Look at this variant and give its reported protein stability index. E4K
Solution: 5.03

Exercise: Consider the variant D20N and give its measured protein stability index.
Solution: 5.57

Exercise: Would you mind telling me what protein stability index value was observed for R12C ?
Solution: 4.82

Exercise: Consider the variant D20Y and give its measured protein stability index.
Solution: 4.18

Exercise: Value lookup for protein stability index; key = F11G
Solution: 5.28

Ref: the supplement of paper PMC10567573
